Consider the following molecules and their measured selectivity ratio readings.
Experiment: Selectivity index, ratio of IC50 for cytotoxicity against African green monkey Vero cells to IC50 for antiparasitic activity against Trypanosoma cruzi epimastigotes assessed as parasite growth inhibition
Type: toxicity, cell-based
Conditions: read-out: Ratio IC50

Below, 3 molecules whose answers are already recorded.
{"molecule": "CC1CS(=O)(=O)CCN1/N=C/c1ccc([N+](=O)[O-])o1 (configuration not stated)", "selectivity ratio": 15.2}
{"molecule": "C#CCN[C@@H](C)[C@H]1CC[C@H]2[C@@H]3CC=C4C[C@@H](OC(C)=O)CC[C@]4(C)[C@H]3CC[C@]12C", "selectivity ratio": "> 1.31"}
{"molecule": "CC(=O)O[C@H]1CC[C@@]2(C)C(=CC[C@H]3[C@@H]4CC[C@H]([C@@H](C)NCc5cn(CCCc6ccccc6)nn5)[C@@]4(C)CC[C@@H]32)C1", "selectivity ratio": "> 1.99"}

Query string: Tell me the measured selectivity ratio of `O=C(Cn1ccnc1[N+](=O)[O-])NCc1ccccc1` , please.
Result string: 1.9
